# Lookup of reported CV75 (concentration affording 75% cell viability), 1 × CV75 keyed by entry
System: THP-1 cells
Assay Procedure: MTT assay on THP-1 cells (CV75)
Format: cell-based, human
Details: THP-1 cells, 24 h
Return type: number; implicit unit µg/mL.

Here's what some known entries look like.
# Compound, Endpoint Value
measured = [
    ("COCOc1cc(N)ccc1N", 72.4),
    ("CCOCOc1cc(N)ccc1N [Compound N3, 2-(ethoxymethoxy)benzene-1,4-diamine]", 115),
    ("Nc1ccc(N)c(OCOCO)c1", 141),
    ("O=[N+]([O-])c1ccc(Cl)c([N+](=O)[O-])c1", 3.0),
    ("CCCCCCCCCCCCOS(=O)(=O)[O-].[Na+] [SLS, reference compound]", 56.0),
]

Return CV75 (concentration affording 75% cell viability), 1 × CV75 (reported value) for this compound: Nc1ccc(N)c(OCC2CO2)c1 (stereo not drawn)
62.3

Return CV75 (concentration affording 75% cell viability), 1 × CV75 (reported value) for this compound: COCCOc1cc(N)ccc1N
44.6

Return CV75 (concentration affording 75% cell viability), 1 × CV75 (reported value) for this compound: C=C(C)Oc1cc(N)ccc1N
44.7

Return CV75 (concentration affording 75% cell viability), 1 × CV75 (reported value) for this compound: N#CCOc1cc(N)ccc1N
123.7
